# Tested on: intracellular Mtb-GFP (Mtb-Erdman) in MRC-5 fibroblasts
# test_name: microbe, parasite or virus in culture
# Format: cell-based, Mycobacterium tuberculosis
# experimental_context: Mycobacterium tuberculosis, ERDMAN, MRC5; MRC-5 cells, FIG. 2A; read-out: IC50 (Mtb-GFP signal)
reported_metric: pIC50
Just so you know, pIC50 here is -log10 of the concentration in molar units; reply with that number alone.

pIC50 reported for this molecule Cc1c(OCC(F)(F)F)ccnc1C[S+]([O-])c1nc2ccccc2[nH]1 (racemic) : 5.83

----------
# Test system: Mtb H37Rv
# test_name: microbe, parasite or virus in culture
# Type: cell-based, Mycobacterium tuberculosis
# experimental_context: Mycobacterium tuberculosis, H37RV; table values in nM; read-out: IC50 against Mtb in broth
reported_metric: IC50 (nM)
Answer format: numeric, nM implied, no suffix.

IC50 reported for this molecule Cc1c(OCC(F)(F)F)ccnc1CSc1nc2ccccc2[nH]1 [LPZS, Lanzoprazole sulfide] : 460

----------
# System: intracellular Mtb-GFP (Mtb-Erdman) in MRC-5 fibroblasts
# test_name: microbe, parasite or virus in culture
# Format: cell-based, Mycobacterium tuberculosis
# experimental_context: Mycobacterium tuberculosis, ERDMAN, MRC5; table values in nM; read-out: IC50 intracellular
reported_metric: IC50 (nM)
Answer format: numeric, nM implied, no suffix.

IC50 reported for this compound Cc1c(OCC(F)(F)F)ccnc1CSc1nc2ccccc2[nH]1 [LPZS, Lanzoprazole sulfide] : 590

----------
# Test system: Mtb H37Rv
# test_name: microbe, parasite or virus in culture
# Assay type: cell-based, Mycobacterium tuberculosis
# experimental_context: Mycobacterium tuberculosis, H37RV; read-out: IC50 (Mtb in broth)
Recorded IC50 by entry
Answer format: numeric, µM implied, no suffix.

>>> df
                                   compound  experimental_target  readout_units  observed_value
0  COCCCOc1ccnc(CSc2nc3ccccc3[nH]2)c1C [Rabeprazole sulfide]            Mtb H37Rv             µM               5
1  Cc1c(OCC(F)(F)F)ccnc1C[S+]([O-])c1nc2ccccc2[nH]1 (racemic)            Mtb H37Rv             µM            32.8
2  COCCCOc1ccnc(C[S+]([O-])c2nc3ccccc3[nH]2)c1C (centres unmarked) [Rabeprazole sodium]            Mtb H37Rv             µM              25

Then this compound:
IC50 reported for this compound Cc1c(OCC(F)(F)F)ccnc1CSc1nc2ccccc2[nH]1 [LPZS, Lanzoprazole sulfide] : 0.46
